# assay.overview: in vivo
# applied.conditions: both, Sprague-Dawley, rat, plasma, iv, 0.2 mg/kg, t1/2 α (α half-life), non-labeled XMP.629, 0.2 mg/kg intravenous, mean
Non-standard residues stand in square brackets, D forms with d. Residues, ends and D or L forms follow the SMILES beside them. d1Nal = N[C@H](Cc1cccc2ccccc12)C(=O)O
measurement.type: half-life (min)

>  <compound>
CC(C)C[C@@H](NC(=O)[C@H](N)CCCCN)C(=O)N[C@H](Cc1ccccc1)C(=O)N[C@H](CCCNC(=N)N)C(=O)N[C@H](Cc1cccc2ccccc12)C(=O)N[C@H](CCC(N)=O)C(=O)N[C@H](C)C(=O)N[C@H](CCCCN)C(=O)N[C@H](Cc1cccc2ccccc12)C(N)=O [XMP.629] (H-[dK][dL][dF][dR][d1Nal][dQ][dA][dK][d1Nal]-NH2)

>  <measurement.type>
half-life

>  <value.units>
min

>  <data.value>
21.2

$$$$
